Reported cell number values for the following molecules.
tested on: TDF; experiment: cell number relative to DMSO (% of DMSO); higher = more cells (less growth inhibition / toxicity); settings: concentration: 10 µM; 24 h

A selection of reference data follows.
| MOLECULE | OBSERVED |
| --- | --- |
| Cl.Cl.NCCSSCCN [Cystamine dihydrochloride] | 107 |
| CCOC(=O)C1=C(C)NC(C)=C(C(=O)OCC)C1c1ccccc1C=CC(=O)OC(C)(C)C | 93.4 |
| CC(N=C(NC#N)Nc1ccncc1)C(C)(C)C (centres undefined) | 107 |
| CC(=O)SCC[N+](C)(C)C.[Cl-] [Acetylthiocholine chloride] | 111 |
| COc1ccccc1OCCNCC(O)COc1cccc2[nH]c3ccccc3c12 (centres undefined) | 104 |
| CNCCC(Oc1ccc(C(F)(F)F)cc1)c1ccccc1.Cl (stereo not drawn) [R-(-)-Fluoxetine hydrochloride] | 105 |

Would you mind telling me what cell number value was observed for O=C(Nc1ncc(-c2cc(C(F)F)nn2-c2c(Cl)cccc2Cl)s1)C1CC1 ?
9.11

Please do the same for COc1ccc(CN2CCN(C(c3ccc(F)cc3)c3ccc(F)cc3)CC2)c(OC)c1OC as well.
98.8

Same again, this time with CCC1C(=O)N(C)c2cnc(Nc3ccc(C(=O)NC4CCN(C)CC4)cc3OC)nc2N1C1CCCC1 (centres undefined)
32.4

====

system: TDF; test: H1.0 immunofluorescence intensity relative to DMSO (% of DMSO); higher = stronger H1.0 induction, active = 120 or more; conditions: concentration: 10 µM; 24 h
PROPERTY: H1.0 immunofluorescence intensity

Completed entries (count: 2):
| MOLECULE | H1.0 immunofluorescence intensity |
| --- | --- |
| CC1(C)CCC2(C(=O)O)CCC3(C)C(=CCC4C5(C)CCC(O)C(C)(C)C5CCC43C)C2C1 (centres undefined) | 101 (inactive) |
| Cc1ccccc1/N=N/c1ccc(NC(=O)c2ccnn2C)c(C)c1 | 98.5 (inactive) |

Notebook entry, TDF assay: H1.0 immunofluorescence intensity of COc1cc(-c2oc3cc(O)cc(O)c3c(=O)c2O)ccc1O = ?
97.1 (inactive)

Can you handle CC(C=CC1=C(C)CCCC1(C)C)=CC=CC(C)=CC(=O)Nc1ccc(O)cc1 [Retinoic acid p-hydroxyanilide] next?
100 (inactive)

====

system: HCC1569; assay: H1.0 immunofluorescence intensity relative to DMSO (% of DMSO); higher = stronger H1.0 induction, active = 140 or more; conditions: concentration: 10 µM; 24 h
PROPERTY: H1.0 immunofluorescence intensity

| COMPOUND | TARGET DESC | H1.0 immunofluorescence intensity |
| --- | --- | --- |
| O=S(=O)(c1cccc2cnccc12)N1CCCNCC1 | HCC1569 | 98.2 (inactive) |

For the compound COC1CC(OC2C(C)C(=O)OC(C)C(C)C(OC(C)=O)C(C)C(=O)C3(CO3)CC(C)C(OC3OC(C)CC(N(C)C)C3OC(C)=O)C2C)OC(C)C1OC(C)=O (stereo not given) [Troleandomycin] , what H1.0 immunofluorescence intensity is on record?
94.6 (inactive)

How about O=C1CSC(c2cccc(Br)c2)N1c1cc(Cl)ccc1O (stereo not given) ?
103 (inactive)

Now consider CNc1cc(NS(=O)(=O)c2ccc(N)cc2)nc(NC)n1.Cl.Cl [Ro 04-6790 dihydrochoride] .
84.4 (inactive)

Again, but for CCCCCC(O)C=CC1C(O)CC(O)C1CC=CCCCC(=O)O (stereo not given) [Prostaglandin F2a]
112 (inactive)

====

system: TDF; test: H1.0 immunofluorescence intensity relative to DMSO (% of DMSO); higher = stronger H1.0 induction, active = 120 or more; conditions: concentration: 10 µM; 24 h
Each entry below carries its reported H1.0 immunofluorescence intensity.
# output: bare number, no unit

Below are worked cases with known answers.
| COMPOUND | PROPERTY | OBSERVED |
| --- | --- | --- |
| CCn1c(=O)[nH]c2cc(Cl)c(Cl)cc21 | H1.0 immunofluorescence intensity | 99.5 |
| COc1ccc(-c2cc(=O)c3c(O)c(OC)c(OC)cc3o2)cc1O | H1.0 immunofluorescence intensity | 102 |
| COc1cc(Br)c(Nc2nc(-c3c(C)nc4ncccn34)cs2)c(Br)c1 | H1.0 immunofluorescence intensity | 108 |
| O=c1cc(-c2ccc(O)cc2)oc2cc(O)c(C3OC(CO)C(O)C(O)C3O)c(O)c12 (stereo not drawn) | H1.0 immunofluorescence intensity | 94.3 |
| CN(CCOc1ccc(CC2SC(=O)NC2=O)cc1)c1ccccn1.O=C(O)C=CC(=O)O (stereo not drawn) [Rosiglitazone maleate] | H1.0 immunofluorescence intensity | 92.5 |

The record that follows has no H1.0 immunofluorescence intensity shown yet.
For COc1ccc(Cl)cc1C(=O)NCCc1ccc(S(=O)(=O)NC(=O)NC2CCCCC2)cc1 [Glyburide] , what is its reported H1.0 immunofluorescence intensity?
90.2

====

test system: TDF; assay: H1.0 immunofluorescence intensity relative to DMSO (% of DMSO); higher = stronger H1.0 induction, active = 120 or more; details: concentration: 10 µM; 24 h
Assign condition met whenever H1.0 immunofluorescence intensity does not fall below 100; assign condition not met whenever it does.

| COMPOUND | CAT |
| --- | --- |
| CN1CCN2c3ccccc3Cc3ccccc3C2C1.Cl (stereo not drawn) [Mianserin hydrochloride] | condition not met |

Is H1.0 immunofluorescence intensity for CCCCCCCCCCCCC(=O)O at or above 100?
condition met

Query O=C1c2c(O)cc(O)cc2OC(c2ccc(O)c(O)c2)C1O (single isomer, unassigned; (+)) [(+)-Taxifolin] next
condition met

Then C#CCCCCCCCCCCCCCCCC(=O)O ?
condition not met

Now the same for CC(C)OC(=O)CCCC=CCC1C(O)CC(O)C1CCC(O)CCc1ccccc1 (stereo not drawn)
condition not met

Please answer likewise for Nc1c2c(nc3ccccc13)CCCC2
condition not met

Then what about the compound O=C1CCc2cc(OCCCCc3nnnn3C3CCCCC3)ccc2N1 ?
condition not met

Further, for CN1CCN(C2=Nc3ccccc3Oc3ccc(Cl)cc32)CC1.O=C(O)CCC(=O)O [Loxapine succinate] ?
condition not met

Next: COc1ccccc1N1CCN(CCN(C(=O)c2ccc(F)cc2)c2ccccn2)CC1.Cl.Cl [p-MPPF dihydrochloride]
condition not met

====

system: HCC1569; experiment: cell number relative to DMSO (% of DMSO); higher = more cells (less growth inhibition / toxicity); details: concentration: 10 µM; 24 h
Reported values of cell number for individual entries
Number, no unit, nothing else.

Example results:
| COMPOUND | OBSERVED |
| --- | --- |
| COCCCCCCCCCCCC(=O)O | 101 |
| Cc1ccc(-c2nn(C(C)(C)C)c3ncnc(N)c23)cc1 | 69.8 |
| Nc1nc(=O)c2nc(Br)n(C3OC4COP(=O)([O-])OC4C3O)c2[nH]1.[Na+] (centres undefined) [8-Bromo-cGMP sodium] | 101 |

Value lookup for cell number; key = Br.CN(C)CCCC1(c2ccc(F)cc2)OCc2cc(C#N)ccc21 (centres undefined) [Citalopram hydrobromide]
101

Then what about the compound CCN(CC)CCNC(=O)c1cc(S(C)(=O)=O)ccc1OC.Cl [Tiapride hydrochloride] ?
111

Likewise for CC(C)C(=O)Nc1ccc([N+](=O)[O-])c(C(F)(F)F)c1 [Flutamide] ?
81.3

# repeat for Nc1ccc(C(=O)O)c(O)c1
105

Same again, this time with CS(=O)(=O)Nc1ccc(-c2coc3cc(OCc4cccc(C(=O)O)c4)ccc3c2=O)cc1
101

Then CCN(CC)CC(=O)Nc1c(C)cccc1C.Cl.O [Lidocaine.HCl.H2O] ?
99

====

tested on: HCC1569; assay: cell number relative to DMSO (% of DMSO); higher = more cells (less growth inhibition / toxicity); details: concentration: 10 µM; 24 h
The threshold is inclusive: cell number of exactly 90 counts as MET; values below receive NOT MET.

Example entries begin here.
| COMPOUND | CAT |
| --- | --- |
| CCCC[C@@H](C=O)NC(=O)[C@H](CC(C)C)NC(=O)[C@H](CC(C)C)NC(C)=O | NOT MET |
| CCN(CC)CCNC(=O)c1ccc(N)cc1.Cl [Procainamide.HCl] | MET |
| O=C(Nc1c(Cl)cncc1Cl)c1ccc(OC(F)F)c(OCC2CC2)c1 | MET |
| COC(=O)c1cc(OC)c2c(c1-c1c(CO)cc(OC)c3c1OCO3)OCO2 | MET |
| Cc1[nH]c(C=C2C(=O)Nc3ccc(S(=O)(=O)N(C)c4cccc(Cl)c4)cc32)c(C)c1C(=O)N1CCN(C)CC1 | NOT MET |

We now examine a further compound.
API: above_or_equal(metric=cell number, cutoff=90) for item O=C(O)c1ccc2ccccc2c1O.OCc1cc(C(O)CNCCCCCCOCCCCc2ccccc2)ccc1O (configuration not stated) [Salmeterol xinafoate]
MET

Every entry's value here was drawn from the supplement of paper PMC7156485.
